- Test system: TOV-21G: human ovarian adenocarcinoma cells
- Protocol description: MTT cytotoxicity assay on TOV-21G cells
- Assay type: cell-based
- Condition parameters: IC50 MRC-5/IC50 TOV-21G
SI (TOV-21G) under 2 gets Met, anything at or over 2 gets Not met.

Compound | Assigned class
CCCc1cc(/C=C/C(=O)c2ccc(C)cc2)c(OC)c(OC)c1 [compound 3] | Not met
CCCc1cc(OC)c(O)c(C(=O)/C=C/c2ccccc2)c1 [compound 15] | Not met
CCCc1cc(/C=C/C(=O)c2ccc(C(=O)/C=C/c3cc(CCC)cc(OC)c3O)cc2)c(O)c(OC)c1 [compound 12] | Met
CCCc1cc(OC)c(O)c(C(=O)/C=C/c2ccc(F)cc2)c1 [compound 18] | Not met
CCCc1cc(/C=C/C(=O)c2ccc(C)cc2)c(OC(C)=O)c(OC)c1 [compound 2] | Not met
COc1cccc2c1C(=O)c1c(O)c3c(c(O)c1C2=O)C[C@@](O)(C(=O)CO)C[C@@H]3O[C@H]1C[C@H](N)[C@H](O)[C@H](C)O1 [doxorubicin, reference compound] | Met
CCCc1cc(/C=C/C(=O)c2ccc(C)cc2)c(O)c(OC)c1 [compound 1] | Not met
CCCc1cc(/C=C/C(=O)c2ccc(O)cc2)c(O)c(OC)c1 [compound 10] | Met

Is SI (TOV-21G) of COc1cc(N)cc(/C=C/C(=O)c2ccc(C)cc2)c1O [compound 8] strictly below 2?
Met

Is SI (TOV-21G) of CCCc1cc(/C=C/C(=O)c2ccccc2)c(O)c(OC)c1 [compound 11] strictly below 2?
Met

Is SI (TOV-21G) of CCCc1cc(OC)c(O)c(C(=O)/C=C/c2ccc(C)cc2)c1 [compound 16] strictly below 2?
Met

Is SI (TOV-21G) of COc1cc([N+](=O)[O-])cc(/C=C/C(=O)c2ccc(C)cc2)c1O [compound 7] strictly below 2?
Met

Is SI (TOV-21G) of CCCc1cc(OC)c(O)c(C(=O)/C=C/c2ccc(O)cc2)c1 [compound 17] strictly below 2?
Met

---

In this section, each of the compounds is paired with its reported pIC50.
- Test system: TOV-21G: human ovarian adenocarcinoma cells
- Protocol description: MTT cytotoxicity assay on TOV-21G cells
- Format: cell-based
- Condition parameters: Homo sapiens, TOV21G; MTT, 72 h incubation, n = 3; NA: noncytotoxic at the concentrations tested
- Procedure: Cytotoxicity was determined using the MTT colorimetric assay, and half-maximal inhibitory concentrations (IC50, μM) were obtained for all cell lines (Table ). The selectivity index (SI) was calculated as the ratio of IC50 MRC-5/IC50 cancer cell line. […] Two hours prior to end point reading, 20 μL of MTT [3-(4,5-dimethylthiazol-2-yl)-2,5-diphenyltetrazolium bromide] solution (1.0 mg/mL in sterile phosphate-buffered saline, Sigma-Aldrich) was added to each well. […]
Just the number, please; pIC50 means minus log10 of the concentration in mol/L.

Would you please look over these solved cases?
Compound | Target of assay | pIC50
COc1cccc2c1C(=O)c1c(O)c3c(c(O)c1C2=O)C[C@@](O)(C(=O)CO)C[C@@H]3O[C@H]1C[C@H](N)[C@H](O)[C@H](C)O1 [doxorubicin, reference compound] | TOV-21G: human ovarian adenocarcinoma cells | 6.30
COc1cc([N+](=O)[O-])cc(/C=C/C(=O)c2ccc(C)cc2)c1O | TOV-21G: human ovarian adenocarcinoma cells | 4.62
CCCc1cc(/C=C/C(=O)c2ccc(O)cc2)c(O)c(OC)c1 | TOV-21G: human ovarian adenocarcinoma cells | 5.14

Please report the recorded pIC50 for CCCc1cc(OC)c(O)c(C(=O)/C=C/c2ccc(F)cc2)c1 .
5.32
